- Test system: Hs578T complex spheroid growth, percent test/control
- Experiment: Anticancer human tumor Hs578T cell line growth inhibition [AhR];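 further: luminescent viability signal as a proxy for spheroid growth; spheroids exposed to agents for one week after three days of growth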
- Condition Context: curve of first compound; second compound 3.16 µM
Experimental Readout: IC50

Here's what some known entries look like.
CC[C@@]1(O)C(=O)OCc2c1cc1n(c2=O)Cc2cc3c(CN(C)C)c(O)ccc3nc2-1 + Cc1ccccc1N=Nc1ccc(NC(=O)c2ccnn2C)c(C)c1; > 0.1 µM
O=C(c1cc(Cc2n[nH]c(=O)c3ccccc23)ccc1F)N1CCN(C(=O)C2CC2)CC1 + Cc1ccccc1N=Nc1ccc(NC(=O)c2ccnn2C)c(C)c1; > 10 µM
COc1cc(C2c3cc4c(cc3C(OC3OC5COC(C)OC5C(O)C3O)C3COC(=O)C23)OCO4)cc(OC)c1O (configuration not stated) + CC(CO)NC(=O)c1cc(-c2ccc(Cl)cc2)nn(-c2cnn(C)c2)c1=O; > 10 µM
CC1COCCN1c1cc(C2(S(C)(=N)=O)CC2)nc(-c2ccnc3[nH]ccc23)n1 (configuration not stated) + Cc1ccccc1N=Nc1ccc(NC(=O)c2ccnn2C)c(C)c1; > 10 µM
O=C(c1cc(Cc2n[nH]c(=O)c3ccccc23)ccc1F)N1CCN(C(=O)C2CC2)CC1 + CC(CO)NC(=O)c1cc(-c2ccc(Cl)cc2)nn(-c2cnn(C)c2)c1=O; > 10 µM

Let me check: CC1(C)CCC(CN2CCN(c3ccc(C(=O)NS(=O)(=O)c4ccc(NCC5CCOCC5)c([N+](=O)[O-])c4)c(Oc4cnc5[nH]ccc5c4)c3)CC2)=C(c2ccc(Cl)cc2)C1 + Cc1ccccc1N=Nc1ccc(NC(=O)c2ccnn2C)c(C)c1 , system Hs578T complex spheroid growth, percent test/control, measured IC50 is > 10 µM

Measured on Hs578T complex spheroid growth, percent test/control, Nc1ccn(C2OC(CO)C(O)C2(F)F)c(=O)n1 (configuration not stated) + Cc1cncc(-c2nc(NCCc3c[nH]c4ccccc34)c3ncn(C(C)C)c3n2)c1 has a documented IC50 of < 0.0316 µM

The reported Hs578T complex spheroid growth, percent test/control IC50 of Cn1ncnc1C1c2n[nH]c(=O)c3cc(F)cc(c23)NC1c1ccc(F)cc1 (configuration not stated) + CC(CO)NC(=O)c1cc(-c2ccc(Cl)cc2)nn(-c2cnn(C)c2)c1=O is > 0.1 µM

GET /values?item= NS(=O)(=O)OCC1CC(n2ccc3c(NC4CCc5ccccc54)ncnc32)CC1O (configuration not stated) + Cc1ccccc1N=Nc1ccc(NC(=O)c2ccnn2C)c(C)c1 &system= Hs578T complex spheroid growth, percent test/control returns IC50: 0.862 µM

Observed IC50, Hs578T complex spheroid growth, percent test/control, CC1COCCN1c1cc(C2(S(C)(=N)=O)CC2)nc(-c2ccnc3[nH]ccc23)n1 (configuration not stated) + Cc1cncc(-c2nc(NCCc3c[nH]c4ccccc34)c3ncn(C(C)C)c3n2)c1 : > 10 µM

With Hs578T complex spheroid growth, percent test/control as the test system, CCN(c1cc(-c2ccc(CN3CCOCC3)cc2)cc(C(=O)NCc2c(C)cc(C)[nH]c2=O)c1C)C1CCOCC1 + Cc1ccccc1N=Nc1ccc(NC(=O)c2ccnn2C)c(C)c1 showed IC50 of > 3 µM

Record Nc1ncn(C2CC(O)C(CO)S2)c(=O)n1 (configuration not stated) + Cc1cncc(-c2nc(NCCc3c[nH]c4ccccc34)c3ncn(C(C)C)c3n2)c1 has Hs578T complex spheroid growth, percent test/control IC50 equal to > 0.3 µM

###

- Test system: Hs578T complex spheroid growth, percent test/control
- Experiment: Anticancer human tumor Hs578T cell line growth inhibition [AhR]; active means viability on the fitted dose curve at most 10% of control; inactive means the rest;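 further: luminescent viability signal as a proxy for spheroid growth; spheroids exposed to agents for one week after three days of growth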
- Condition Context: second compound 1 µM; first compound 0.3 µM
Allowed answers: active, inactive

Record excerpt, results attached:
O=C(C=Cn1cnc(-c2cc(C(F)(F)F)cc(C(F)(F)F)c2)n1)NNc1cnccn1 + Cc1cncc(-c2nc(NCCc3c[nH]c4ccccc34)c3ncn(C(C)C)c3n2)c1; inactive
CCc1c2c(nc3ccc(O)cc13)-c1cc3c(c(=O)n1C2)COC(=O)[C@]3(O)CC + Cc1cncc(-c2nc(NCCc3c[nH]c4ccccc34)c3ncn(C(C)C)c3n2)c1; inactive
Nc1ncn(C2CC(O)C(CO)S2)c(=O)n1 (stereo not given) + Cc1cncc(-c2nc(NCCc3c[nH]c4ccccc34)c3ncn(C(C)C)c3n2)c1; inactive

### Prompt Per the assay record, what outcome was assigned to CCN(c1cc(-c2ccc(CN3CCOCC3)cc2)cc(C(=O)NCc2c(C)cc(C)[nH]c2=O)c1C)C1CCOCC1 + Cc1cncc(-c2nc(NCCc3c[nH]c4ccccc34)c3ncn(C(C)C)c3n2)c1 ?
### Response inactive

### Prompt Recorded test outcome, item Nc1ncn(C2CC(O)C(CO)S2)c(=O)n1 (stereo not given) + Cc1ccccc1N=Nc1ccc(NC(=O)c2ccnn2C)c(C)c1
### Response inactive

### Prompt Outcome logged for CC(C)CC(NC(=O)C(Cc1ccccc1)NC(=O)c1cnccn1)B(O)O (stereo not given) + Cc1ccccc1N=Nc1ccc(NC(=O)c2ccnn2C)c(C)c1 in this assay:
### Response active

### Prompt Check the results log: what was the call for O=C(C=Cn1cnc(-c2cc(C(F)(F)F)cc(C(F)(F)F)c2)n1)NNc1cnccn1 + Cc1ccccc1N=Nc1ccc(NC(=O)c2ccnn2C)c(C)c1 ?
### Response inactive

### Prompt Hi, sorry to bother you, what did the test record for Nc1ncn(C2CC(O)C(CO)S2)c(=O)n1 (stereo not given) + CC(CO)NC(=O)c1cc(-c2ccc(Cl)cc2)nn(-c2cnn(C)c2)c1=O ?
### Response inactive

### Prompt Which outcome did this test record for the molecule CCc1c2c(nc3ccc(O)cc13)-c1cc3c(c(=O)n1C2)COC(=O)[C@]3(O)CC + Cc1ccccc1N=Nc1ccc(NC(=O)c2ccnn2C)c(C)c1 ?
### Response inactive

###

- Test system: Hs578T complex spheroid growth, percent test/control
- Experiment: Anticancer human tumor Hs578T cell line growth inhibition [AhR];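 further: luminescent viability signal as a proxy for spheroid growth; spheroids exposed to agents for one week after three days of growth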
- Condition Context: second compound 0.1 µM; first compound 0.000316 µM; stronger effect = lower value
- From the text: Multicellular complex tumor spheroid response to aryl hydrocarbon receptor antagonists in combination with a variety of drugs and investigational agents in selected tumor cell lines […] Compounds. […] If the clinical Cmax for an agent had not been determined, the highest concentration tested was 10 microM (Table 1). […]
// reported viability, T/C per item
Your answer is read as %, so omit the unit and give the number.

A selection of reference data follows.
Cn1ncnc1C1c2n[nH]c(=O)c3cc(F)cc(c23)NC1c1ccc(F)cc1 (stereo unspecified) + Cc1ccccc1N=Nc1ccc(NC(=O)c2ccnn2C)c(C)c1; 109
CC[C@@]1(O)C(=O)OCc2c1cc1n(c2=O)Cc2cc3c(CN(C)C)c(O)ccc3nc2-1 + CC(CO)NC(=O)c1cc(-c2ccc(Cl)cc2)nn(-c2cnn(C)c2)c1=O; 120
CC[C@@]1(O)C(=O)OCc2c1cc1n(c2=O)Cc2cc3c(CN(C)C)c(O)ccc3nc2-1 + Cc1ccccc1N=Nc1ccc(NC(=O)c2ccnn2C)c(C)c1; 101
Cn1ncnc1C1c2n[nH]c(=O)c3cc(F)cc(c23)NC1c1ccc(F)cc1 (stereo unspecified) + Cc1cncc(-c2nc(NCCc3c[nH]c4ccccc34)c3ncn(C(C)C)c3n2)c1; 103
Cn1ncnc1C1c2n[nH]c(=O)c3cc(F)cc(c23)NC1c1ccc(F)cc1 (stereo unspecified) + CC(CO)NC(=O)c1cc(-c2ccc(Cl)cc2)nn(-c2cnn(C)c2)c1=O; 111

Now let's try a different one.
// sample CC[C@@]1(O)C(=O)OCc2c1cc1n(c2=O)Cc2cc3c(CN(C)C)c(O)ccc3nc2-1 + Cc1cncc(-c2nc(NCCc3c[nH]c4ccccc34)c3ncn(C(C)C)c3n2)c1 , its viability, T/C was 109

###

- Tested on: Hs578T complex spheroid growth, percent test/control
- Experiment: Anticancer human tumor Hs578T cell line growth inhibition [AhR];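 further: luminescent viability signal as a proxy for spheroid growth; spheroids exposed to agents for one week after three days of growth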
- Condition Context: second compound 10 µM; first compound 3.16 µM; stronger effect = lower value
Experimental Readout: viability, T/C

Solved entries (count: 5):
Nc1ccn(C2OC(CO)C(O)C2(F)F)c(=O)n1 (stereo unspecified) + CC(CO)NC(=O)c1cc(-c2ccc(Cl)cc2)nn(-c2cnn(C)c2)c1=O; 51.5%
COc1cc(Nc2ncc3c(n2)-c2ccc(Cl)cc2C(c2c(F)cccc2OC)=NC3)ccc1C(=O)O + CC(CO)NC(=O)c1cc(-c2ccc(Cl)cc2)nn(-c2cnn(C)c2)c1=O; 83.5%
NS(=O)(=O)OCC1CC(n2ccc3c(NC4CCc5ccccc54)ncnc32)CC1O (stereo unspecified) + Cc1ccccc1N=Nc1ccc(NC(=O)c2ccnn2C)c(C)c1; 30.2%
O=C(C=Cc1cccc(S(=O)(=O)Nc2ccccc2)c1)NO + Cc1cncc(-c2nc(NCCc3c[nH]c4ccccc34)c3ncn(C(C)C)c3n2)c1; 1.35%
CC(C)c1c(-c2ccccc2)nc2c(C#N)c[nH]n2c1=O + Cc1ccccc1N=Nc1ccc(NC(=O)c2ccnn2C)c(C)c1; 69.4%

// O=C(C=Cc1cccc(S(=O)(=O)Nc2ccccc2)c1)NO + CC(CO)NC(=O)c1cc(-c2ccc(Cl)cc2)nn(-c2cnn(C)c2)c1=O : viability, T/C value = 42.1%
